# System: ORYZA SATIVA, L. TEBONNET
# assay: Rice tolerance to post-transplant applications under flooded paddy conditions, ORYSAT (Rice, Tebonnet);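 also: applied to flooded soil surface three days after transplanting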
# Type: in vivo
# assayConditions: post-transplant rice, Rate 0.250 kg/ha, rated three to four weeks after treatment
Doc: threshold 2 (exclusive). Items with ORYSAT herbicidal rating (rice tolerance) beneath it return satisfied; others return not satisfied.

### Prompt Strictly below 2: is that where ORYSAT herbicidal rating (rice tolerance) of CCOC(=O)Cn1c(=O)n(C)c(=O)n(-c2cc(Oc3ccc(C(F)(F)F)cc3Cl)ccc2[N+](=O)[O-])c1=O sits?
### Response not satisfied

### Prompt Next entry: CCOC(=O)Cn1c(=O)[nH]c(=O)n(-c2cc(Oc3ccc(C(F)(F)F)cc3Cl)ccc2[N+](=O)[O-])c1=O
### Response not satisfied

### Prompt Next entry: CCOC(=O)Cn1c(=O)n(C)c(=O)n(-c2cc(Oc3c(F)cc(C(F)(F)F)cc3Cl)ccc2C#N)c1=O
### Response satisfied

### Prompt Next entry: COC(=O)Cn1c(=O)n(C)c(=O)n(-c2cc(Oc3ccc(C(F)(F)F)cc3Cl)ccc2[N+](=O)[O-])c1=O
### Response not satisfied
